Experiment: acute toxicity in the rat
Format: in vivo
Conditions: rat, in vivo, po
Method: Its oral LD50 in mice is greater than 100 mg./kg. In the rat, it also has an LD50 value greater than 1000 mg./kg. […] No changes in clinical chemistry, hematology or body weight were observed.

# Compound, LD50
measured = [
    ("OCCSCc1ccncc1 [4-(2-Hydroxyethylthiomethyl)pyridine]", "> 1000 mg/kg"),
]
